ASSAY EXPLANATION: qHTS profiling of the MIPE4 collection as inhibitors of Plasmodium falciparum (3D7) proliferation (AID 743344);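 further: scaled between DMSO vehicle wells and 0.29 µM artemisinin as full inhibition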
EXPERIMENTAL CONDITIONS: P. falciparum 3D7 in erythrocytes, SYBR Green DNA fluorescence, 72 h; at 28.5 µM unless noted
Rule: parasite growth, % of DMSO control of 70% or more gives label 1; anything lower gives label 0.

Cc1c(C(=O)Nc2ccc(N3C[C@@H](C)O[C@@H](C)C3)nc2)cccc1-c1ccc(OC(F)(F)F)cc1	label 0
O=c1[nH]c(=O)n([C@H]2C[C@@H](O)[C@@H](CO)O2)cc1C(F)(F)F	label 0
C[C@@H](O)[C@H]1C(=O)N2C(C(=O)OCOC(=O)C(C)(C)C)=C(SC3CN(C4=NCCS4)C3)[C@H](C)[C@H]12	label 0
C=C[C@@H]1CN2CCC1C[C@@H]2C(O)c1ccnc2ccc(OC)cc12 (stereo partly drawn)	label 0
O=C(c1ccc(C(=O)N2CCC(N3CCCC3)CC2)c(Nc2ccccc2)c1)N1CCC(N2CCCC2)CC1	label 1
CN1N=C(N)c2cn([C@@H]3O[C@H](COP(=O)(O)O)[C@@H](O)[C@@H]3O)c3ncnc1c23	label 1
CC(C)N(CCCNC(=O)Nc1ccc(C(C)(C)C)cc1)C[C@H]1O[C@@H](n2cc(Br)c3c(N)ncnc32)[C@H](O)[C@H]1O	label 0

----------
ASSAY EXPLANATION: qHTS profiling of the MIPE4 collection as inhibitors of Plasmodium falciparum (3D7) proliferation (AID 743344);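 further: scaled between DMSO vehicle wells and 0.29 µM artemisinin as full inhibition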
EXPERIMENTAL CONDITIONS: P. falciparum 3D7 in erythrocytes, SYBR Green DNA fluorescence, 72 h; at 28.5 µM unless noted
Experimental: Plasmodium falciparum is a virulent malarial parasite that kills 1-2 million people worldwide each year. […] Because mature erythrocytes lack DNA, only Plasmodium-derived DNA is detected. The SYBR Green viability assay was adapted from a method described previously (Plouffe et al., 2008). […] The following morning, fluorescence intensity at 485(14) nm excitation and 535(25) nm emission wavelengths was measured on an EnVision (Perkin Elmer) plate reader. […]
PROPERTY LABEL: parasite growth, % of DMSO control (%)

COc1nccc(-c2c(-c3ccc(F)cc3)ncn2C2CCNCC2)n1	36.4
CN[C@@H](C)[C@H]1[C@H](O)C[C@@]2(C)[C@@H]3CC[C@H]4C(C)(C)[C@@H](NC)CC[C@@]45C[C@@]35CC[C@]12C	16.9
NC[C@H]1O[C@H](O[C@@H]2[C@@H](O)[C@@H](O[C@H]3O[C@H](CO)[C@@H](O)[C@H](N)[C@@H]3O)[C@H](N)C[C@@H]2N)[C@H](O)[C@@H](O)[C@H]1O	96.1
CCOC(=O)[C@H](CCc1ccccc1)N[C@@H](C)C(=O)N1CCCC1C(=O)O (some centres undefined)	53.7
CC(NCCc1ccc(O)cc1)C(O)c1ccc(O)cc1 (centres undefined)	85
C[C@@]1(C(=O)Nc2ccc(F)nc2)CCCN1c1nc(Nc2cc(C3CC3)[nH]n2)c2cccn2n1	10.3
CC1=C(CC(=O)O)c2cc(F)ccc2C1=Cc1ccc(S(C)=O)cc1 (centres undefined)	79.1
COC1CCC(C(=O)c2ccc3nc4c(cc3c2)CCCO4)CC1 (centres undefined)	21.8
CC(C)(CO)[C@@H](O)C(=O)NCCC(=O)O	92.1

----------
ASSAY EXPLANATION: Quantitative High-Throughput drug screen in 47 multiple myeloma cell lines against the NCATS MIPE library collection: AMO1_DSMZ cell viability assay (AID 1918927; further: nearly all actives have a fitted effect of over 30% in size)
EXPERIMENTAL CONDITIONS: AMO1 myeloma cells viability, CellTiter-Glo ATP luminescence, 48 h; series mostly up to 45.8 µM
Inconclusive results are not listed. Activity calls are given as the source filed them. Calls follow the shape of the dose curve; as a rule, active = well fitted cell-killing curve with a large enough effect; inconclusive = small, poorly fitted or top-dose-only effect, or effect the other way; inactive = no such curve, though single readings can be large or run the other way.
Possible outcomes: active, inactive

CC(C)n1c(C=C[C@H](O)C[C@H](O)CC(=O)O)c(-c2ccc(F)cc2)c2ccccc21	active
CC=C(C(=CC)c1ccc(O)cc1)c1ccc(O)cc1	active
NS(=O)(=O)c1cc(Cl)c(Cl)c(S(N)(=O)=O)c1	inactive
Cc1ccc(C2=Nc3ccc(Cl)cc3OC2)cc1	active
CNC1CCC(N(Cc2cccc(-c3ccncc3)c2)C(=O)c2sc3ccccc3c2Cl)CC1 (stereo unspecified)	active
CC(C)CNc1ccnc(NCc2csc(-c3ccccc3)n2)n1	active

----------
ASSAY EXPLANATION: qHTS profiling of the MIPE4 collection as inhibitors of Plasmodium falciparum (HB3) proliferation (AID 743347);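 further: plate controls were DMSO vehicle wells for no effect and artemisinin wells for full effect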
EXPERIMENTAL CONDITIONS: P. falciparum HB3 in erythrocytes, SYBR Green DNA, 72 h; at 28.5 µM unless noted
# note: exactly 10% is not below, so it is criterion not met; use criterion met for growth, % of control strictly under it

CCOC(=O)[C@H](CCc1ccccc1)N[C@@H](C)C(=O)N1CCCC1C(=O)O (some centres not stated)	criterion not met
COc1ccc(Cn2ccc3ccc(C(=O)NO)cc32)cc1	criterion met
CCCCC(C)(C)[C@H](O)C=C[C@H]1[C@H](O)CC(=O)[C@H]1CC=CCCCC(=O)O	criterion not met
CCOC(=O)c1c(CSc2ccccc2)n(C)c2cc(Br)c(O)c(CN(C)C)c12	criterion met
Fc1ccc(CNc2ncnc3ccc(F)cc23)cc1	criterion not met
CNC1[C@H](O)C(O[C@@H]2C(O)C(O[C@H]3O[C@H]([C@@H](C)NC)CC[C@H]3N)[C@@H](N)C[C@H]2N)OC[C@]1(C)O (some centres not stated)	criterion not met
CN(C)CCOc1ccc(-c2nc(-c3ccc4c(c3)CCC4=NO)c(-c3ccncc3)[nH]2)cc1	criterion met
O=C1NC(=O)C(c2cnc3ccccn23)=C1c1cn2c3c(cccc13)CN(C(=O)N1CCOCC1)CC2	criterion not met
Cc1c(-c2cccc3c(CCCOc4cccc5ccccc45)c(C(=O)O)n(Cc4cccnc4)c23)c(COc2ccc(N3CCN([S+](=O)([O-])N(C)C)CC3)cc2)nn1C	criterion met
CC[C@H](C)n1cc(C)c2c(C(=O)NCc3c(C)cc(C)[nH]c3=O)cc(-c3ccc(N4CCNCC4)nc3)cc21	criterion met
CC1(C)C(N(O)C(=O)Nc2ccc(Cl)cc2)N(c2ccc(Cl)cc2)C(=O)N1CC(=O)NN=CC=Cc1ccc([N+](=O)[O-])o1 (configuration not stated)	criterion met
O=C(CCCN1CCN(c2ccc(F)cc2)CC1)NC1c2ccccc2CSc2ccccc21 (configuration not stated)	criterion not met
CC(C)c1onc(-c2c(Cl)cccc2Cl)c1COc1ccc(C=Cc2cccc(C(=O)O)c2)c(Cl)c1	criterion not met
COc1nccc(-c2c(-c3ccc(F)cc3)ncn2C2CCNCC2)n1	criterion not met
N=C1SC(=Cc2ccc(-c3ccc4c(c3)C(=O)NC4=O)o2)C(=O)N1c1ccc(Br)cc1	criterion met
CN1CC(=O)NC1=NC(=O)Nc1cccc(Cl)c1	criterion not met
CC(=O)O[C@]1(C(C)=O)CC[C@H]2[C@@H]3C=C(Cl)C4=CC(=O)[C@@H]5C[C@H]5[C@]4(C)[C@@H]3CC[C@@]21C	criterion not met
CNC(=O)c1c(-c2ccc(F)cc2)oc2cc(N(CCO)S(C)(=O)=O)c(C3CC3)cc12	criterion met
COc1cc2ncnc(Nc3cc(Br)c(O)c(Br)c3)c2cc1OC	criterion met
C=CC(=O)Nc1cccc(Sc2nc(Nc3ccc(N4CCN(C)CC4)cc3)ncc2Cl)c1	criterion met
Cn1c(=O)c(Oc2ccc(F)cc2F)cc2cnc(NC3CCOCC3)nc21	criterion not met
Oc1ccc(C=Cc2cc(O)cc(O)c2)cc1	criterion not met
CN1c2ccccc2C(=O)N2CCc3c([nH]c4ccccc34)C21 (configuration not stated)	criterion not met
O=C(O)C1=NC(C(=O)O)CC(C=CN2c3cc(O)c(OC4OC(CO)C(O)C(O)C4O)cc3CC2C(=O)O)=C1 (configuration not stated)	criterion not met
CN(C)CC[C@H](CSc1ccccc1)Nc1ccc(S(=O)(=O)NC(=O)c2ccc(N3CCN(Cc4ccccc4-c4ccc(Cl)cc4)CC3)cc2)cc1[N+](=O)[O-]	criterion met
COc1cc2c(cc1OC)[C@@H]1Cc3ccc(OC)c(OC)c3CN1CC2	criterion not met
CCCCC(F)(F)[C@@]1(O)CC[C@H]2[C@H](CC(=O)[C@@H]2CCCCCCC(=O)O)O1	criterion not met
CN(C)S(=O)(=O)c1ccc2c(c1)C(=Cc1cc3c([nH]1)CCCC3)C(=O)N2	criterion met
CCC(=C(CC)c1ccc(O)cc1)c1ccc(O)cc1	criterion not met
COc1cc(N2CCN(C)CC2)ccc1Nc1nc(N)c(C(=O)c2c(Cl)cccc2Cl)s1	criterion not met
Cc1cccc(Nc2nc(N[C@@H]3CCCC[C@H]3N)ncc2C(N)=O)c1	criterion met
Cn1cc(-c2ccc3nnc(Sc4ccc5ncccc5c4)n3n2)cn1	criterion not met
O=C(CO)N1CCC(c2[nH]nc(-c3ccc(Cl)cc3)c2-c2ccncn2)CC1	criterion not met
CC[C@H](C)C(=O)O[C@H]1C[C@H](O)C=C2C=C[C@H](C)[C@H](CC[C@@H](O)C[C@@H](O)CC(=O)O)[C@H]21	criterion not met
COc1ccc2nc3cc(Cl)ccc3c(Nc3cc(CN4CCCC4)c(O)c(CN4CCCC4)c3)c2n1	criterion not met
COc1ccc(C=CC(=O)Nc2ccccc2C(=O)O)cc1OC	criterion not met
CN1CCN2c3ncccc3Cc3ccccc3C2C1 (configuration not stated)	criterion not met
